test system: Streptococcus pneumoniae Park 1; assay: microbe, parasite or virus in culture; type: cell-based; conditions: Streptococcus pneumoniae Park 1; agar dilution
observationType: MIC (mg/L)
Express the result in mg/L but write the number alone.

Examples from the recorded data:
| molecule | subjectOfTest | observationType | reportedMeasurement |
| --- | --- | --- | --- |
| CN[C@H](CC(C)C)C(=O)N[C@H]1C(=O)N[C@@H](CC(N)=O)C(=O)N[C@H]2C(=O)N[C@H]3C(=O)N[C@H](C(=O)N[C@H](C(=O)O)c4cc(O)cc(O)c4-c4cc3ccc4O)[C@H](O)c3ccc(c(Cl)c3)Oc3cc2cc(c3O[C@@H]2O[C@H](CO)[C@@H](O)[C@H](O)[C@H]2O[C@H]2C[C@](C)(N)C(=O)[C@H](C)O2)Oc2ccc(cc2Cl)[C@H]1O [A83850B] | Streptococcus pneumoniae Park 1 | MIC | 0.125 |
| CN[C@H](CC(C)C)C(=O)N[C@H]1C(=O)N[C@@H](CC(N)=O)C(=O)N[C@H]2C(=O)N[C@H]3C(=O)N[C@H](C(=O)N[C@H](C(=O)O)c4cc(O)cc(O)c4-c4cc3ccc4O)[C@H](O)c3ccc(c(Cl)c3)Oc3cc2cc(c3O[C@@H]2O[C@H](CO)[C@@H](O)[C@H](O)[C@H]2O[C@H]2C[C@](C)(N)[C@@H](O)[C@H](C)O2)Oc2ccc(cc2Cl)[C@H]1O [Reduced A83850B] | Streptococcus pneumoniae Park 1 | MIC | 0.125 |
| CC(C)C[C@H](C(=O)N[C@H]1C(=O)N[C@@H](CC(N)=O)C(=O)N[C@H]2C(=O)N[C@H]3C(=O)N[C@H](C(=O)N[C@H](C(=O)O)c4cc(O)cc(O)c4-c4cc3ccc4O)[C@H](O)c3ccc(c(Cl)c3)Oc3cc2cc(c3O[C@@H]2O[C@H](CO)[C@@H](O)[C@H](O)[C@H]2O[C@H]2C[C@](C)(N)C(=O)[C@H](C)O2)Oc2ccc(cc2Cl)[C@H]1O)N(C)C [A83850A] | Streptococcus pneumoniae Park 1 | MIC | 1.0 |

Now consider the entry below.
Ask: Field: MIC (Streptococcus pneumoniae Park 1). Entry: CC(C)C[C@H](C(=O)N[C@H]1C(=O)N[C@@H](CC(N)=O)C(=O)N[C@H]2C(=O)N[C@H]3C(=O)N[C@H](C(=O)N[C@H](C(=O)O)c4cc(O)cc(O)c4-c4cc3ccc4O)[C@H](O)c3ccc(c(Cl)c3)Oc3cc2cc(c3O[C@@H]2O[C@H](CO)[C@@H](O)[C@H](O)[C@H]2O[C@H]2C[C@](C)(N)[C@@H](O)[C@H](C)O2)Oc2ccc(cc2Cl)[C@H]1O)N(C)C [Reduced A83850A]
Result: 0.25

---

Test system: Staphylococcus epidermidis 270
Assay type: cell-based
Conditions: Staphylococcus epidermidis 270; agar dilution
Protocol: The MIC's in Table VII were determined by standard agar-dilution assays.
observationType: MIC (µg/mL)
Express the result in µg/mL but write the number alone.

Examples from the recorded data:
| compound | MIC [µg/mL] |
| --- | --- |
| CN[C@H](CC(C)C)C(=O)N[C@H]1C(=O)N[C@@H](CC(N)=O)C(=O)N[C@H]2C(=O)N[C@H]3C(=O)N[C@H](C(=O)N[C@H](C(=O)O)c4cc(O)cc(O)c4-c4cc3ccc4O)[C@H](O)c3ccc(c(Cl)c3)Oc3cc2cc(c3O[C@@H]2O[C@H](CO)[C@@H](O)[C@H](O)[C@H]2O[C@H]2C[C@](C)(N)C(=O)[C@H](C)O2)Oc2ccc(cc2Cl)[C@H]1O [A83850B] | 1.0 |
| CC(C)C[C@H](C(=O)N[C@H]1C(=O)N[C@@H](CC(N)=O)C(=O)N[C@H]2C(=O)N[C@H]3C(=O)N[C@H](C(=O)N[C@H](C(=O)O)c4cc(O)cc(O)c4-c4cc3ccc4O)[C@H](O)c3ccc(c(Cl)c3)Oc3cc2cc(c3O[C@@H]2O[C@H](CO)[C@@H](O)[C@H](O)[C@H]2O[C@H]2C[C@](C)(N)C(=O)[C@H](C)O2)Oc2ccc(cc2Cl)[C@H]1O)N(C)C [A83850A] | 4.0 |

Now consider the entry below.
Ask: // query MIC value for entry CC(C)C[C@H](C(=O)N[C@H]1C(=O)N[C@@H](CC(N)=O)C(=O)N[C@H]2C(=O)N[C@H]3C(=O)N[C@H](C(=O)N[C@H](C(=O)O)c4cc(O)cc(O)c4-c4cc3ccc4O)[C@H](O)c3ccc(c(Cl)c3)Oc3cc2cc(c3O[C@@H]2O[C@H](CO)[C@@H](O)[C@H](O)[C@H]2O[C@H]2C[C@](C)(N)[C@@H](O)[C@H](C)O2)Oc2ccc(cc2Cl)[C@H]1O)N(C)C [Reduced A83850A]
Result: 4.0
